experiment: Toxicity in ip dosed Swiss-Webster mouse after 24 hrs; format: organism-based; settings: in vivo
REPORTED_ENDPOINT: LD50 at 24 h

Exercise: Quick one: LD50 at 24 h for COc1c2c(c3c(c1OC)CN(C(=O)CC(c1ccccc1)c1ccccc1)CC3)CCC2 ?
Key: 100 mg/kg

Exercise: // same read-out, input: Br.COc1ccc(CCN2CCc3c(c4c(c(OC)c3OC)CCC4)C2)cc1OC
Key: 100 mg/kg

Exercise: // same read-out, input: Br.COc1c2c(c3c(c1OC)CCN(C)C3)CCC2
Key: 10 mg/kg

Exercise: // same read-out, input: CC(=O)Oc1c2c(c3c(c1OC(C)=O)CN(C)CC3)CCC2.O=C(O)C(F)(F)F
Key: 200 mg/kg

Exercise: // same read-out, input: CC(=O)Oc1c2c(c3c(c1OC(C)=O)CCN(C)C3)CCC2
Key: 150 mg/kg

Exercise: // same read-out, input: COc1ccc(CC(=O)N2CCc3c(c4c(c(OC)c3OC)CCC4)C2)cc1OC
Key: 500 mg/kg

Exercise: // same read-out, input: COc1c2c(c3c(c1OC)CNCC3)CCC2
Key: 79 mg/kg

Exercise: // same read-out, input: COc1ccc(CN2CCc3c4c(c(OC)c(OC)c3C2)CCC4)cc1OC.Cl
Key: 141 mg/kg

Exercise: // same read-out, input: COc1ccc(C(=O)N2CCc3c(c4c(c(OC)c3OC)CCC4)C2)cc1OC
Key: > 1000 mg/kg

Exercise: // same read-out, input: Br.CN1CCc2c(c(O)c(O)c3c2CCC3)C1
Key: 150 mg/kg

Exercise: // same read-out, input: Br.CCC(C)CN1CCc2c(c3c(c(OC)c2OC)CCC3)C1 (stereo unspecified)
Key: 178 mg/kg

----------
test system: Rattus norvegicus; experiment: Cardiovascular activity in deoxycorticosterone acetate treated hypertensive CD rat assessed as change in heart rate at 20 mg, ip after 4 hrs relative to control; assay type: ADME, organism-based; conditions: in vivo
REPORTED_ENDPOINT: Activity (%)
Reply numerically in %, unit not repeated.

Exercise: Quick one: Activity for Br.CCC(C)CN1CCc2c3c(c(OC)c(OC)c2C1)CCC3 (configuration not stated) ?
Key: 3.4

Exercise: // same read-out, input: Br.COc1c2c(c3c(c1OC)CN(C)CC3)CCC2
Key: 8.5

Exercise: // same read-out, input: COc1c2c(c3c(c1OC)CN(CC(c1ccccc1)c1ccccc1)CC3)CCC2
Key: 0.8

Exercise: // same read-out, input: COc1ccc(C(=O)N2CCc3c4c(c(OC)c(OC)c3C2)CCC4)cc1OC
Key: 2.2

Exercise: // same read-out, input: COc1c2c(c3c(c1OC)CNCC3)CCC2
Key: 11

Exercise: // same read-out, input: COc1ccc(CC(=O)N2CCc3c4c(c(OC)c(OC)c3C2)CCC4)cc1OC
Key: 1.3

Exercise: // same read-out, input: COc1c2c(c3c(c1OC)CN(C(=O)CC(c1ccccc1)c1ccccc1)CC3)CCC2
Key: 2.4

----------
system: Rattus norvegicus; assay: Cardiovascular activity in deoxycorticosterone acetate treated hypertensive CD rat assessed as change in heart rate at 50 mg, ip after 1 hr relative to control; assay type: ADME, organism-based; settings: in vivo
What Activity was measured for each of the following?
Reply numerically in %, unit not repeated.

Exercise: Quick one: Activity for Br.CN1CCc2c(c(O)c(O)c3c2CCC3)C1 ?
Key: 8.2

Exercise: // same read-out, input: Br.CN1CCc2c(O)c(O)c3c(c2C1)CCC3
Key: -1.9

Exercise: // same read-out, input: Br.COc1ccc(CCN2CCc3c4c(c(OC)c(OC)c3C2)CCC4)cc1OC
Key: 22

Exercise: // same read-out, input: Br.COc1c2c(c3c(c1OC)CN(C)CC3)CCC2
Key: -8.7

Exercise: // same read-out, input: C[C@](N)(Cc1ccc(O)c(O)c1)C(=O)O [METHYLDOPA]
Key: 106.2

Exercise: // same read-out, input: CC(=O)Oc1c2c(c3c(c1OC(C)=O)CN(C)CC3)CCC2.O=C(O)C(F)(F)F
Key: 14.6

Exercise: // same read-out, input: Br.COc1ccc(CN2CCc3c(c4c(c(OC)c3OC)CCC4)C2)cc1OC
Key: 0.4

Exercise: // same read-out, input: COc1ccc(CN2CCc3c4c(c(OC)c(OC)c3C2)CCC4)cc1OC.Cl
Key: 13
